All values here come from patent US20070020327A1.

Assignment: determine reported IC50 for the given binders.
Biological target: HLA-A*0203 (human)
Test: inhibition of 125I-labelled probe peptide binding to purified HLA; gel filtration
Details: remark: other sources report otherwise
Your answer is read as nM, so omit the unit and give the number.

Challenge: Given the binder GVSIWNPIV (modifications not checked) [peptide 60.0207 (PAP.128.V9)] , what is its reported IC50?
Response given: 909

Challenge: ALDVYNGLL (modifications not checked) [peptide 1177.02 (PAP.299)] ?
Response given: 256

Challenge: ALFPPEGVSI (modifications not checked) [peptide 1419.6 (PAP.122)] ?
Response given: 133
